Test: Equilibrium solubility determined by UPLC
Type: physicochemical
Details: organic solvent or mixture, thermodynamic from solid, MeOH
Observable: solubility thermodynamic (mg/mL)
# unit: mg/mL | format: bare number

Please look up its solubility thermodynamic: COc1cc(NC(C(=O)c2c[nH]c3ccc(OC(F)(F)F)cc23)c2ccc(Cl)cc2OC)cc(S(C)(=O)=O)c1 (stereo not shown)
42

###

Assay: Approximate solubility screening in organic solvents at ambient temperature
Assay type: physicochemical
Settings: organic solvent or mixture, thermodynamic from solid, MeOH/DCM (1/1, v/v), read-out: S (solubility)
Observable: solubility

Please look up its solubility: COc1cc(NC(C(=O)c2c[nH]c3ccc(OC(F)(F)F)cc23)c2ccc(Cl)cc2OC)cc(S(C)(=O)=O)c1 (stereo not shown) [API]
> 100 mg/mL

These data points were gathered from patent US20240000749A1.
